test system: OVCAR-4; assay: Growth inhibition of human OVCAR4 cells at 10 uM after 48 hrs by SRB assay relative to control; format: functional; settings: OVCAR-4, 48 h, read-out: GI
// class 0 strictly below 20% in inhibition of growth at 10 µM; class 1 otherwise

// below: answered compounds
INPUT: Confirm if inhibition of growth at 10 µM reported for the compound COc1ccccc1NC(=O)c1cccc(-c2cc(=O)c3c(OC)c(OC)c(OC)cc3o2)c1 is 20% or above.
OUTPUT: class 0

INPUT: Also COc1cc2oc(-c3cccc(NC(=O)c4ccc5c(c4)OCO5)c3)cc(=O)c2c(OC)c1OC ?
OUTPUT: class 1

INPUT: Also COc1cc2oc(-c3cccc(NC(=O)c4ccccc4)c3)cc(=O)c2c(OC)c1OC ?
OUTPUT: class 0

INPUT: Also COc1ccc(NC(=O)c2cccc(-c3cc(=O)c4c(OC)c(OC)c(OC)cc4o3)c2)cc1 ?
OUTPUT: class 0

Kindly review the next compound as well.
INPUT: Confirm if inhibition of growth at 10 µM reported for the compound COc1cc2oc(-c3cccc(C(=O)Nc4ccccc4)c3)cc(=O)c2c(O)c1OC is 20% or above.
OUTPUT: class 1

Cited source: ChEMBL document CHEMBL4325889
